The entries below are paired with their reported plant injury at 250 g/ha.
Test system: corn (Zea mays)
Assay: Test G Pre-Emergence Protocol
Assay type: in vivo
Settings: Zea mays, pre-emergence, 312 h, 250 g ai/ha, evaluated after 13 days, read-out: Corn damage rating (100=total damage to plant; 0=no damage to plant)
measurementType: plant injury at 250 g/ha (%)

> print(dat)
                                    compound     targetentity  unitsofmeasure  readoutnumber
 1  CN1C[C@@H](c2ccc(C(F)(F)F)cc2)[C@H](C(=O)Nc2cnnc(Cl)c2Cl)C1=O (racemic)  corn (Zea mays)               %              0
 2  COc1cccc(NC(=O)[C@H]2C(=O)N(C)C[C@@H]2c2ccc(C(F)(F)F)cc2)c1C (racemic)  corn (Zea mays)               %              0
 3  CN1CC(c2ccc(C(F)(F)F)c(C(F)(F)F)c2)C(C(=O)Nc2cccc(F)c2F)C1=O (centres unmarked)  corn (Zea mays)               %             10
 4  CN1C[C@@H](c2ccc(C(F)(F)F)cc2)[C@H](C(=O)Nc2cnccc2C(F)(F)F)C1=O (racemic)  corn (Zea mays)               %             20
 5  CN1C[C@H](c2cccc(C(F)(F)F)c2)[C@@H](C(=O)Nc2cccc(O)c2F)C1=O (racemic)  corn (Zea mays)               %              0
 6  CN1C[C@H](c2cccc(C(F)(F)F)c2)[C@@H](C(=O)Nc2cnccc2F)C1=O (racemic)  corn (Zea mays)               %              0
 7  CN1C[C@@H](c2cnc(Cl)c(F)c2)[C@H](C(=O)Nc2cccc(F)c2F)C1=O (racemic)  corn (Zea mays)               %             40
 8  CN1C[C@@H](c2ccc(C(F)(F)F)cc2)[C@H](C(=O)Nc2ncc[nH]2)C1=O (racemic)  corn (Zea mays)               %              0
 9  C[C@@]1(C(=O)Nc2cccc(F)c2F)C(=O)NC[C@@H]1c1ccc(C(F)(F)F)cc1 (racemic)  corn (Zea mays)               %              0
10  CSc1nc(NC(=O)[C@@H]2C(=O)N(C)C[C@H]2c2ccc(C(F)(F)F)cc2)n[nH]1 (racemic)  corn (Zea mays)               %              0
11  CSc1nnc(NC(=O)[C@@H]2C(=O)N(C)C[C@H]2c2ccc(C(F)(F)F)cc2)[nH]1 (racemic)  corn (Zea mays)               %              0
12  CN1C[C@H](c2ccc(C(F)(F)F)cc2)[C@@H](C(=O)Nc2cccc3nsnc23)C1=O (racemic)  corn (Zea mays)               %              0
13  Cc1c(Cl)ncnc1NC(=O)[C@@H]1C(=O)N(C)C[C@H]1c1ccc(C(F)(F)F)cc1 (racemic)  corn (Zea mays)               %              0
14  COC(=O)c1nccc(NC(=O)[C@@H]2C(=O)N(C)C[C@H]2c2ccc(C(F)(F)F)cc2)n1 (racemic)  corn (Zea mays)               %              0

Recorded values, source patent US12077503B2.
